# experimentalSystem: Piezo1 (Mus musculus, UniProt E2JF22)
# Construct: native channel in freshly isolated brain capillary endothelial cells
# Sequence (E2JF22 whole entry): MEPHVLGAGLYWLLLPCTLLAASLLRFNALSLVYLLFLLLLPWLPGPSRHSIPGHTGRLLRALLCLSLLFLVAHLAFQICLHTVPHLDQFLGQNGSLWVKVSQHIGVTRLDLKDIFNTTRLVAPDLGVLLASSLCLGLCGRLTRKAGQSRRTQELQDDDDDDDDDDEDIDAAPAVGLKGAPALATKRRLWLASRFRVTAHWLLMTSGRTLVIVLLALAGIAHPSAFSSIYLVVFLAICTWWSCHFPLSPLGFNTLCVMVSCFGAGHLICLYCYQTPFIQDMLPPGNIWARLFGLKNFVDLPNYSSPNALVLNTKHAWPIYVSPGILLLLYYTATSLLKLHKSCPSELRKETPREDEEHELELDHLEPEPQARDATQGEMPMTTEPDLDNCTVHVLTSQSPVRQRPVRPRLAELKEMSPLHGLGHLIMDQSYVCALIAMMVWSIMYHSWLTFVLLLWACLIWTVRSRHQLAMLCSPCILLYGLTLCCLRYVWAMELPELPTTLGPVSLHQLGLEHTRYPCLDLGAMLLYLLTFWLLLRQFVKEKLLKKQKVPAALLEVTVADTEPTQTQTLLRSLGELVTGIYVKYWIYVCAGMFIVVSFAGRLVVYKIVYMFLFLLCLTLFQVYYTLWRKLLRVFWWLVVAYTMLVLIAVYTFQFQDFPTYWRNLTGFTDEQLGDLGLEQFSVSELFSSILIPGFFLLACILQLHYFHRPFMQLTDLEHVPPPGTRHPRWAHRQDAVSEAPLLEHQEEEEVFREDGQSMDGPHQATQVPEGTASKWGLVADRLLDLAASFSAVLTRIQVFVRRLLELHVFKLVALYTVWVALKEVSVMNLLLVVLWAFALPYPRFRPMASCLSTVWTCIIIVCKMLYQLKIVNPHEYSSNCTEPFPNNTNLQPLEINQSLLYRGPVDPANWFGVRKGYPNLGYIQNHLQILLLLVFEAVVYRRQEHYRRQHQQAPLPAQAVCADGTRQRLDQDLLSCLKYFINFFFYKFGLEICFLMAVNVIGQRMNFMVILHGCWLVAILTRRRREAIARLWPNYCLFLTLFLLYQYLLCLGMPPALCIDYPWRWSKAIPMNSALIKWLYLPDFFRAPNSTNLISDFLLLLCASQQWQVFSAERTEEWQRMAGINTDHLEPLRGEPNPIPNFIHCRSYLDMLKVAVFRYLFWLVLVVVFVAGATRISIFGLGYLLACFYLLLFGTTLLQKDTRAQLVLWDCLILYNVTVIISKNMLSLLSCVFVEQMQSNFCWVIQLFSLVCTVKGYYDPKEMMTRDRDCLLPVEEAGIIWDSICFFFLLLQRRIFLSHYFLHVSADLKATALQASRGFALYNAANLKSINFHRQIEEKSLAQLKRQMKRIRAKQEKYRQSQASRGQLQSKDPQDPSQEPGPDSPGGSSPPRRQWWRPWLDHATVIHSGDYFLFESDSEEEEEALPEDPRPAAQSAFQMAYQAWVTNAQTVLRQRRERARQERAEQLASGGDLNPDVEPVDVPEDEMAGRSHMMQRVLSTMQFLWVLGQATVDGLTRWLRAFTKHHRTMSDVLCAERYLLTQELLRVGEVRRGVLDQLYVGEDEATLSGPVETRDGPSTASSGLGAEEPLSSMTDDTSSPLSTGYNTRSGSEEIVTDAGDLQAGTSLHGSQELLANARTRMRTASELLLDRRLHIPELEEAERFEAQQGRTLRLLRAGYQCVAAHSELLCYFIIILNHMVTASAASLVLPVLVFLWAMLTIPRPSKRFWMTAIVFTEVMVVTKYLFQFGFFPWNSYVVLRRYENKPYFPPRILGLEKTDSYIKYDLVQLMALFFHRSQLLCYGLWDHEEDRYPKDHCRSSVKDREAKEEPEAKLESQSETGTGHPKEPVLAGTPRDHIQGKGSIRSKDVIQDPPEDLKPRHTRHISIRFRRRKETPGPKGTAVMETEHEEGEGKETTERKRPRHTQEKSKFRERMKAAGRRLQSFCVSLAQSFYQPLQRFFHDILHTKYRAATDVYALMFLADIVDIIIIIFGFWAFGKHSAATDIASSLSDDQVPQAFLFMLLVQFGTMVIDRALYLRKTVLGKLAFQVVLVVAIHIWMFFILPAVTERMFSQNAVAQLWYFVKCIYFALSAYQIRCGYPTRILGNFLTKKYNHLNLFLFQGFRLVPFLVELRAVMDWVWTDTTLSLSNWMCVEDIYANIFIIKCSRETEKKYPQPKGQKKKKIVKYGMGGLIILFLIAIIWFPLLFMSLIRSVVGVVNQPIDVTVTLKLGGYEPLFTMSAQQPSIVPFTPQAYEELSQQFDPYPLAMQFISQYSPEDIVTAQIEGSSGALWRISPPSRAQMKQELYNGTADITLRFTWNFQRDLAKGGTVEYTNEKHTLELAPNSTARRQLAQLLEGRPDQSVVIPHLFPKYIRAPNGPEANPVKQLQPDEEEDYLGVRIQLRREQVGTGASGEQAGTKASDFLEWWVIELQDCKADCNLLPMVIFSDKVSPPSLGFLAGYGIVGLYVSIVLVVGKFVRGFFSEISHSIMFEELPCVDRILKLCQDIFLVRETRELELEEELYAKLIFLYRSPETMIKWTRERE
# test: single-channel patch clamp (cell-attached concentration-response with Yoda1; outside-out patches with PIP2 in pipette)
measurementName: IC50

- smilesRecord: "CCCCCCCCCCCCCCCC(=O)OC[C@H](COP(=O)(O)O[C@@H]1[C@H](O)[C@H](O)[C@@H](OP(=O)(O)O)[C@H](OP(=O)(O)O)[C@H]1O)OC(=O)CCCCCCCCCCCCCCC"
  result: "~300 nM"
